test system: MDA-MB-435; assay: Cytotoxicity against human MDA-MB-435 cells at 20 uM; type: cell-based; settings: mda-mb-435, 20 µM
// boundary case: Activity equal to 20% maps to criterion not met; strictly smaller maps to criterion met

>>> df
                               input_smiles  target_or_system     category_label
0  COc1ccccc1-n1c(SCC(=O)NNC(=O)c2ccccc2O)nnc1-c1ccccc1O        MDA-MB-435  criterion not met
1  O=C(CSc1nnc(-c2ccccc2O)n1Cc1ccccc1)NNC(=O)c1ccccc1O        MDA-MB-435      criterion met
2  Cc1cc(C)nc(SCc2nnc(SCC(=O)NNC(=O)c3ccccc3O)n2C)n1        MDA-MB-435      criterion met
3  COc1ccc(-c2nnc(SCC(=O)NNC(=O)c3ccccc3O)n2-c2ccccc2)cc1OC        MDA-MB-435      criterion met
4  COc1ccc(-n2c(Cc3ccccc3)nnc2SCC(=O)NNC(=O)c2ccccc2O)cc1        MDA-MB-435      criterion met

Task: Could you please tell me whether Activity recorded for O=C(CSc1nnc(-c2ccc(Cl)cc2)n1-c1ccccc1)N/N=C/c1ccccc1C(=O)O is less than 20%?
Output: criterion met

Task: Could you please tell me whether Activity recorded for Cn1c(SCC(=O)NNC(=O)c2ccccc2O)nnc1-c1ccccc1 is less than 20%?
Output: criterion not met

Task: Could you please tell me whether Activity recorded for O=C(CSc1nnc(-c2ccccc2)n1Cc1ccccc1)NNC(=O)c1ccccc1O is less than 20%?
Output: criterion not met

Task: Could you please tell me whether Activity recorded for O=C(CSc1nnc(-c2ccc(Cl)cc2)n1-c1ccccc1)NNC(=O)c1ccccc1O is less than 20%?
Output: criterion not met

Task: Could you please tell me whether Activity recorded for O=C(CSc1nnc(Cc2ccccc2)n1-c1cccc(Cl)c1)NNC(=O)c1ccccc1O is less than 20%?
Output: criterion met
